Assay: Intact half-life during simulated gastric fluid (SGF) digestion
Settings: purified proteins, chip electrophoresis, SGF
REPORTED METRIC: Half-life (s)

MOLECULE: SEQID-00598: nutritive polypeptide naturally produced in Flaxseed, recombinantly expressed in E. coli (protein, listed as Linum usitatissimum) MSRRCPGKNAWPELVGKSGNMAAATVERENRNVHAIVLKEGSAMTKDFRCDRVWVIVNDHGVVTSVPHIT
ASSAY VALUE: 30
